Task for the reader: assign each of the following molecules its reported pIC50.
Molecular target: human CB1 receptor (Homo sapiens)
Construct: expressed in transfected cells; host or cells: HEK293
Assay: bioSensAll GAPL-Gi2 BRET biosensor assay in HEK293 cells transfected with hCB1; test compound added before EC75-80 of agonist CP55,940 (0.1 nM)
Type: cell-based
Settings: vs CP55,940 0.1 nM (EC75-80), read-out: CB1 wt Gi2 IC50
Experimental: Using polyethylenimine (PEI) transfection agent, HEK293 cells were transfected in suspension with the human CB1 receptor and one of the following bioSensAll® assays: GAPL-Gi2, or β-arrestin plasma membrane (PM) translocation biosensor (+GRK2). Cells were directly seeded in 96-well plates immediately following transfection. Cells were incubated with coelenterazine (luciferase substrate) and different test compounds prior to the measurement of BRET signals. […]
// returns pIC50 (minus log10 of molar concentration), number only

Given the molecule CN(CCO)c1nc(N2CCC(C)(C(N)=O)CC2)c2nc(-c3ncccc3Cl)n(-c3ccc(Cl)cc3)c2n1 [Compound 49] and test system human CB1 receptor (Homo sapiens), the measured pIC50 is 8.59

Measured pIC50 (human CB1 receptor (Homo sapiens)), entry CC1(C(N)=O)CCN(c2nc(OC3CCCOC3)nc3c2nc(-c2ccccc2Cl)n3-c2ccc(Cl)cc2)CC1 (stereo not shown) [Compound 17] : 9.21

For the molecule CC(=O)NC(=N)Nc1nc(N2CCC(C(F)(F)F)CC2)c2nc(-c3ccccc3Cl)n(-c3ccc(Cl)cc3)c2n1 [Compound 34] , the measured pIC50 on human CB1 receptor (Homo sapiens) was 8.18

Case C[C@@H]1CN(c2nc(OCC(C)(C)O)nc3c2nc(-c2ccccc2Cl)n3-c2ccc(Cl)cc2)CCO1 [Compound 206] , human CB1 receptor (Homo sapiens), pIC50 recorded as 9.11

* * *

biological target: human CB1 receptor (Homo sapiens, UniProt P21554); construct: expressed in transfected cells; host or cells: HEK293; assay: bioSensAll GAPL-Gi2 BRET biosensor assay in HEK293 cells transfected with hCB1; test compound added before EC75-80 of agonist CP55,940 (0.1 nM); assay type: cell-based; conditions: vs CP55,940 0.1 nM (EC75-80), read-out: CB1 wt Gi2 IC50
Sequence (P21554 whole entry): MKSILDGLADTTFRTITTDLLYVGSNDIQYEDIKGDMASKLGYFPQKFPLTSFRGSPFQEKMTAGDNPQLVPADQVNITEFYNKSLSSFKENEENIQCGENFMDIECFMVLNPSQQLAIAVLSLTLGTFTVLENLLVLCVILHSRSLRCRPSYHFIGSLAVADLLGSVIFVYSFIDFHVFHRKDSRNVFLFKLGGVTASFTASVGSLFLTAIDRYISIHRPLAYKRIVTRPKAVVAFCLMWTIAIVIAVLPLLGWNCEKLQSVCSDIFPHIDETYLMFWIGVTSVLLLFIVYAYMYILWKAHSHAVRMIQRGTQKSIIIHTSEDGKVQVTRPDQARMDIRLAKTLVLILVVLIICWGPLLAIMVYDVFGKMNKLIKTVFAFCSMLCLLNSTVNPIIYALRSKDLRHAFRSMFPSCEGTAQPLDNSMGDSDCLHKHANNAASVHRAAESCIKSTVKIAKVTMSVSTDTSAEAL
pIC50: −log10 of the molar value.
Short version: pIC50 at least 9 is Met, less is Not met.

Request: Please indicate if the recorded pIC50 for COC1(C)CN(c2nc(OCC(C)(C)O)nc3c2nc(-c2ccc(C#N)nc2)n3-c2ccc(Cl)cc2)C1 [Compound 114] meets or exceeds 9.
Result: Not met

Request: Item CN(CCO)c1nc(N2CCC(F)(F)CC2)c2nc(-c3ccccc3Cl)n(-c3ccc(Cl)cc3)c2n1 [Compound 184] with pIC50 of 9 or above?
Result: Met

Request: // inclusive: pIC50 at least 9? input: CN(CC1COC1)c1nc(-c2ccc(C(F)(F)F)nc2)c2nc(-c3ccccc3Cl)n(-c3ccc(Cl)cc3)c2n1 [Compound 125]
Result: Not met

Request: Given Cc1nc(C#N)ccc1-c1nc2c(N3CCC(C)(C(N)=O)CC3)nc(OCC(C)(C)O)nc2n1-c1ccc(Cl)cc1 [Compound 107] , state whether its pIC50 is at least 9.
Result: Not met

Request: Form field: pIC50 at least 9? Entry: O=S1(=O)CCN(c2nc(N3CCC(C(F)(F)F)CC3)c3nc(-c4ccccc4Cl)n(-c4ccc(Cl)cc4)c3n2)CC1 [Compound 32]
Result: Met

Request: Determine whether measured pIC50 meets or exceeds 9 for CC(C)(O)CNc1nc(N2CCC(C)(C(N)=O)CC2)c2nc(-c3ccc(C#N)nc3)n(-c3ccc(Cl)cc3)c2n1 [Compound 111]
Result: Not met

Request: Does O=S1(=O)CCC(Nc2nc(N3CCC[C@H]3CO)nc3c2nc(-c2ccccc2Cl)n3-c2ccc(Cl)cc2)CC1 [Compound 166] have a reported pIC50 of at least 9?
Result: Met
